Values from ChEMBL document CHEMBL4145536

Give IC50 for every item shown.
Tested on: HepG2
Test: Cytotoxicity against human HepG2 cells assessed as decrease in cell viability after 24 hrs by MTT assay
Format: cell-based
Settings: HepG2, 24 h
Numbers only, in µM.

A selection of reference data follows.
[
  {
    "lineNotation": "CCN(CC)CCNc1nc(-c2[nH]c3ccccc3c2Cl)nc2ccccc12",
    "unitName": "µM",
    "IC50": 4.6
  },
  {
    "lineNotation": "CN(C)CCCNc1nc(-c2cc3ccccc3[nH]2)nc2ccccc12",
    "unitName": "µM",
    "IC50": 44.2
  },
  {
    "lineNotation": "Clc1c(-c2nc(NCCN3CCCCC3)c3ccccc3n2)[nH]c2ccccc12",
    "unitName": "µM",
    "IC50": 18
  }
]

Alright, here's another compound for you.
Recorded result, Clc1c(-c2nc(NCCCN3CCOCC3)c3ccccc3n2)[nH]c2ccccc12 , IC50: 10.3

* * *

Task for the reader: assign each of the following molecules its reported pIC50.
Test system: HepG2
Assay: Cytotoxicity against human HepG2 cells assessed as decrease in cell viability after 24 hrs by MTT assay
Assay type: cell-based
Conditions: HepG2, 24 h
Numbers only, as −log10 of the molar value.

Guide cases for pIC50, answers given:
[
  {
    "lineNotation": "CN1CCN(CCCNc2nc(-c3[nH]c4ccccc4c3Cl)nc3ccccc23)CC1",
    "assaySystem": "HepG2",
    "measured": 5.57
  },
  {
    "lineNotation": "Clc1c(-c2nc(NCCCN3CCCC3)c3ccccc3n2)[nH]c2ccccc12",
    "assaySystem": "HepG2",
    "measured": 5.33
  },
  {
    "lineNotation": "CN(C)CCNc1nc(-c2[nH]c3ccccc3c2Br)nc2ccccc12",
    "assaySystem": "HepG2",
    "measured": 5.39
  },
  {
    "lineNotation": "OCCNc1nc(-c2[nH]c3ccccc3c2Cl)nc2ccccc12",
    "assaySystem": "HepG2",
    "measured": 4.68
  },
  {
    "lineNotation": "CN(C)CCCNc1nc(-c2[nH]c3ccccc3c2Br)nc2ccccc12",
    "assaySystem": "HepG2",
    "measured": 5.37
  }
]

Hey, quick one: what's pIC50 for each of these?
1. CN1CCN(CCCNc2nc(-c3[nH]c4ccccc4c3F)nc3ccccc23)CC1
2. Fc1c(-c2nc(NCCN3CCCC3)c3ccccc3n2)[nH]c2ccccc12
3. CN(C)CCCNc1nc(-c2[nH]c3ccccc3c2F)nc2ccccc12
4. O=c1[nH]c(-c2cc3ccccc3[nH]2)nc2ccccc12
5. Clc1c(-c2nc(NCCN3CCOCC3)c3ccccc3n2)[nH]c2ccccc12
6. CN(C)CCCNc1nc(-c2[nH]c3ccccc3c2Cl)nc2ccccc12

[5.28, 5.14, 5.22, 4.83, 4.81, 5.39]

State the recorded pIC50 for every item in the following list.
1. Brc1c(-c2nc(NCCN3CCCCC3)c3ccccc3n2)[nH]c2ccccc12
2. Brc1c(-c2nc(NCCN3CCCC3)c3ccccc3n2)[nH]c2ccccc12
3. Clc1c(-c2nc(NCCN3CCCC3)c3ccccc3n2)[nH]c2ccccc12
4. CC(C)CCNc1nc(-c2[nH]c3ccccc3c2F)nc2ccccc12
5. CN(C)CCNc1nc(-c2[nH]c3ccccc3c2Cl)nc2ccccc12

5.29
5.37
5.60
4.54
5.57

* * *

Provide the reported log10 IC50 of each item.
Test system: HepG2
Assay: Cytotoxicity against human HepG2 cells assessed as decrease in cell viability after 24 hrs by MTT assay
Format: cell-based
Conditions: HepG2, 24 h
Record value = log10 of IC50 given in µM.

# annotated cases, reported log10 IC50 shown
[
  {
    "lineNotation": "Brc1c(-c2nc(NCCCN3CCCC3)c3ccccc3n2)[nH]c2ccccc12",
    "log10 IC50": 0.49
  },
  {
    "lineNotation": "CN(C)CCNc1nc(-c2[nH]c3ccccc3c2F)nc2ccccc12",
    "log10 IC50": 0.62
  },
  {
    "lineNotation": "CC(C)CNc1nc(-c2[nH]c3ccccc3c2Cl)nc2ccccc12",
    "log10 IC50": 1.36
  },
  {
    "lineNotation": "CN(C)CCCNc1nc(-c2[nH]c3ccccc3c2C=O)nc2ccccc12",
    "log10 IC50": 1.44
  }
]

For each listed entry, give its log10 IC50.
1. CCN(CC)CCNc1nc(-c2[nH]c3ccccc3c2Br)nc2ccccc12
2. Fc1c(-c2nc(NCCCN3CCCC3)c3ccccc3n2)[nH]c2ccccc12
3. OCCCNc1nc(-c2[nH]c3ccccc3c2F)nc2ccccc12

1. 0.79
2. 1.40
3. 1.48

* * *

System: HepG2
Assay: Cytotoxicity against human HepG2 cells assessed as decrease in cell viability after 24 hrs by MTT assay
Format: cell-based
Settings: HepG2, 24 h
I'd appreciate it if you could supply pIC50 values for the items below.
One number for each entry, as −log10 of the molar value.

[
  {
    "lineNotation": "CN(C)CCNc1nc(-c2cc3ccccc3[nH]2)nc2ccccc12",
    "pIC50": 4.60
  },
  {
    "lineNotation": "Brc1c(-c2nc(NCCCN3CCCCC3)c3ccccc3n2)[nH]c2ccccc12",
    "pIC50": 5.22
  }
]

Now for another entry.
// sample c1ccc2[nH]c(-c3nc(NCCN4CCCC4)c4ccccc4n3)cc2c1 , its pIC50 was 4.39
